# Measurement target: GPR35 (Homo sapiens)
# Sequence (Q9HC97 whole entry): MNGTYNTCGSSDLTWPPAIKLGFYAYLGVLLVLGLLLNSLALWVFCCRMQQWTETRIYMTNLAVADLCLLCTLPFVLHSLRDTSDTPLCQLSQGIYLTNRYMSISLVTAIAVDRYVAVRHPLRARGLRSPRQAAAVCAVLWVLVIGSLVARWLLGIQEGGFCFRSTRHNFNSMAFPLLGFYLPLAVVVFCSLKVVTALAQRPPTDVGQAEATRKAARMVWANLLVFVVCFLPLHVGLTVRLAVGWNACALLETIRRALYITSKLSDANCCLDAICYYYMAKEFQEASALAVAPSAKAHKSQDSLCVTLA
# Assay name: Tango β-arrestin translocation gene reporter assay in Tango GPR35-bla U2OS cells
# Format: cell-based
# Applied conditions: compared to zaprinast
Measured endpoint: agonist type in Tango β-arrestin translocation assay

Prompt: State its agonist type in Tango β-arrestin translocation assay for this molecule: CC1=C(C#N)C(=C(C#N)C#N)OC1(c1ccccc1)C(F)(F)F (centres unmarked)
Completion: partial agonists

Prompt: State its agonist type in Tango β-arrestin translocation assay for this molecule: CC1=C(C#N)C(=C(C#N)C#N)OC12CCCCC2
Completion: partial agonists

Prompt: State its agonist type in Tango β-arrestin translocation assay for this molecule: CCCCCCCCc1c(C(=O)O)sc2c(Br)csc12 [Compound 16b]
Completion: partial agonists

Prompt: State its agonist type in Tango β-arrestin translocation assay for this molecule: CCCCCCc1c(C(=O)O)sc2ccsc12
Completion: partial agonists

This collection of values is drawn from paper PMC3198121.
